target: 5-hydroxytryptamine receptor 1D (Homo sapiens); assay: Displacement of [3H]5-CT from human 5-HT1D receptor expressed in HEKT cells after 90 mins by microbeta scintillation counting analysis; format: cell-based
Sequence (P28221 whole entry): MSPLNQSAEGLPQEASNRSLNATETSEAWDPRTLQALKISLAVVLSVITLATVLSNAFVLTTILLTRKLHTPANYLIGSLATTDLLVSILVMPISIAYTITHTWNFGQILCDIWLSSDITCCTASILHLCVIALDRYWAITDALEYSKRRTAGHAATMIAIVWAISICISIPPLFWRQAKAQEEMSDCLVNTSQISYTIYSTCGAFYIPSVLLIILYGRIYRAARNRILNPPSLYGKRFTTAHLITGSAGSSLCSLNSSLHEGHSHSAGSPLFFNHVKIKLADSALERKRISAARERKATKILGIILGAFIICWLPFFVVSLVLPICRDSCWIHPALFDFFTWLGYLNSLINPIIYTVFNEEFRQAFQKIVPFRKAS
observable: Ki (µM)

>>> readoutnumber("Oc1ccccc1C1=NC(Cc2c[nH]cn2)CS1 (racemic)")
1.9
>>> readoutnumber("COC(=O)[C@H](Cc1cnc[nH]1)NC(=O)[C@@H]1N=C(c2ccccc2O)S[C@@H]1C")
0.53
>>> readoutnumber("CNc1ccccc1C1=N[C@@H](CO)[C@H](C)S1 (relative stereo)")
8.5
>>> readoutnumber("C[C@@H]1SC(c2ccccc2)=N[C@H]1CO (relative stereo)")
5.3
>>> readoutnumber("C[C@@H]1SC(c2ccsc2)=N[C@H]1CO (relative stereo)")
8.6
>>> readoutnumber("C[C@@H]1SC(c2ccccc2)=N[C@H]1Cc1c[nH]cn1 (relative stereo)")
0.8

====

target: 5-hydroxytryptamine receptor 3A (Homo sapiens, UniProt P46098); experiment: Displacement of [3H]-GR65630 from human 5-HT3 receptor expressed in HEKT cells after 90 mins by microbeta scintillation counting analysis; type: cell-based
Sequence (P46098 whole entry): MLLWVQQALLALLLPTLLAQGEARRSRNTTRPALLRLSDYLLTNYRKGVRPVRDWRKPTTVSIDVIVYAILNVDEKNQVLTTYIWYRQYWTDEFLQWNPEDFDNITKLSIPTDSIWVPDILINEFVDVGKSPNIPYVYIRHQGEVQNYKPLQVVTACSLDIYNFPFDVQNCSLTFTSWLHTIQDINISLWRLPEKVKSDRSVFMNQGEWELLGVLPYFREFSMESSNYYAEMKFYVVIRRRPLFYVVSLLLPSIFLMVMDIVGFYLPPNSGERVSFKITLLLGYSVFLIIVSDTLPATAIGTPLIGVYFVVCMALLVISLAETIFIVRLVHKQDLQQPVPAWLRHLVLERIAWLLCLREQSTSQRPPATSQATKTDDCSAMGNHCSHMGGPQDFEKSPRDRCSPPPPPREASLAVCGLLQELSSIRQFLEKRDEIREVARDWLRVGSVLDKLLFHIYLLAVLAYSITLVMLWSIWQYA
Quick rule for you: Ki under 3000 nM gets T, anything else gets F.

>>> labelclass("C[C@@H]1SC(c2ccccc2O)=N[C@H]1Cc1c[nH]cn1 (racemic)")
"T"
>>> labelclass("C[C@@H]1SC(c2cc3ccccc3cc2O)=N[C@H]1CO (relative stereo)")
"T"
>>> labelclass("C[C@@H]1SC(c2ccsc2)=N[C@H]1CO (relative stereo)")
"F"
>>> labelclass("C[C@@H]1SC(c2ccco2)=N[C@H]1CO (relative stereo)")
"F"
>>> labelclass("COC(=O)[C@H](Cc1cnc[nH]1)NC(=O)[C@@H]1N=C(c2ccccc2O)S[C@@H]1C")
"F"
>>> labelclass("C[C@@H]1SC(c2ccccc2)=N[C@H]1Cc1c[nH]cn1 (relative stereo)")
"T"
>>> labelclass("C[C@@H]1SC(c2cccs2)=N[C@H]1CO (relative stereo)")
"F"
>>> labelclass("C[C@@H]1SC(c2c[nH]c3ccccc23)=N[C@H]1CO (relative stereo)")
"T"
>>> labelclass("CNc1ccccc1C1=N[C@@H](CO)[C@H](C)S1 (relative stereo)")
"F"
>>> labelclass("CCCCCCOc1ccc(C2=N[C@@H](CO)[C@H](C)S2)cc1 (relative stereo)")
"F"
>>> labelclass("C[C@@H]1SC(c2ccccc2)=N[C@@H]1Cc1c[nH]cn1 (relative stereo)")
"T"
>>> labelclass("Oc1ccccc1C1=NC(Cc2c[nH]cn2)CS1 (racemic)")
"T"

====

Below is a list of entries, each paired with its recorded pEC50 value.
biological target: 5-hydroxytryptamine receptor 1B (Homo sapiens, UniProt P28222); assay: Partial agonist activity at 5-HT1B receptor (unknown origin) by Tango assay
Sequence (P28222 whole entry): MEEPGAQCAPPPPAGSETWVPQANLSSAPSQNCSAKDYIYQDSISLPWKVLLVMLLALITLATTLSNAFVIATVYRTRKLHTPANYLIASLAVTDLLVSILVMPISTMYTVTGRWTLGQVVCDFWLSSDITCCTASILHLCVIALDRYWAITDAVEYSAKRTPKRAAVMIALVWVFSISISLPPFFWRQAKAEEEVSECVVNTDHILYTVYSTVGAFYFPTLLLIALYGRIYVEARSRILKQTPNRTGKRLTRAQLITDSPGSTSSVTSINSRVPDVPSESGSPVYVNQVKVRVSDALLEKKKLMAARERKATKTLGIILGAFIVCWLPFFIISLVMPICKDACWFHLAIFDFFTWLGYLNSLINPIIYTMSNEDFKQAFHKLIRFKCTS
pEC50: −log10 of the molar value.
observable: pEC50

>>> readoutnumber("CCCCOc1ccc(C2=N[C@@H](CO)[C@H](C)S2)cc1 (relative stereo)")
7.54
>>> readoutnumber("CCCCCCOc1ccc(C2=N[C@@H](CO)[C@H](C)S2)cc1 (relative stereo)")
6.74

====

Below is a list of entries, each paired with its recorded IC50 value.
target: 5-hydroxytryptamine receptor 7 (Homo sapiens, UniProt P34969); assay: Antagonist activity at 5-HT7A receptor (unknown origin) by Tango assay
Sequence (P34969 whole entry): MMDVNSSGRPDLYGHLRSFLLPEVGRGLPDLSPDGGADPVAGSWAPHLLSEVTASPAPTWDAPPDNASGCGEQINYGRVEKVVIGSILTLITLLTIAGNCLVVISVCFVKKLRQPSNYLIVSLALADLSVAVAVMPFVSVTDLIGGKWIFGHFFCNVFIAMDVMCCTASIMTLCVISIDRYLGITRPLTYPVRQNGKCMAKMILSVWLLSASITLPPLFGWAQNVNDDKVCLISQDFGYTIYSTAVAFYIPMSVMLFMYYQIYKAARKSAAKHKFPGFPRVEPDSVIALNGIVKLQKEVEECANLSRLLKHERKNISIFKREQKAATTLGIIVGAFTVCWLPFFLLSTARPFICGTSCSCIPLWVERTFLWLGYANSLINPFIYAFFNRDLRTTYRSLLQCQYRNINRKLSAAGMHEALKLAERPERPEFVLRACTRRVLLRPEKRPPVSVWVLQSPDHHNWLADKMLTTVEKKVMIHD
observable: IC50

>>> result("C[C@@H]1SC(c2ccccc2)=N[C@H]1Cc1c[nH]cn1 (relative stereo)")
"> 10 µM"
>>> result("C[C@@H]1SC(c2ccccc2)=N[C@@H]1Cc1c[nH]cn1 (relative stereo)")
"> 10 µM"
>>> result("Oc1ccccc1C1=NC(Cc2c[nH]cn2)C(c2ccccc2)S1 (racemic)")
"> 10 µM"
